target: SIRT1 (Homo sapiens); test: Trp mass spectrometry assay of SIRT1 activation; format: biochemical; settings: Trp peptide assay; EC1.5 = concentration that results in 150% activation of SIRT1
endpoint: TRP Activity (EC1.5)

Answered examples (10):
What does the data say about its TRP Activity (EC1.5)? Entry: Cc1ccc(-c2ccc3c(n2)N(C(=O)Nc2cnccn2)[C@H]2CCN3C2)c(C)n1
B (B (EC1.5 1-25 μM))

Moving on to the next molecule: O=C(Nc1cnccn1)N1c2nc(N3CCNCC3)ccc2N2CC[C@H]1C2
C (C (EC1.5>25 μM))

Moving on to the next molecule: O=C(Nc1cnccn1)N1c2nc(-c3ccnc(C(F)(F)F)c3)ccc2N2CCC[C@H]1C2
A (A (EC1.5<1 μM))

Moving on to the next molecule: Cc1cc(-c2ccc3c(n2)N(C(=O)Nc2nccnc2F)[C@H]2CCN3C2)ccn1
B (B (EC1.5 1-25 μM))

Moving on to the next molecule: O=C(NCC(F)(F)F)c1ccc2c(n1)N(C(=O)Nc1ccccn1)[C@H]1CCN2C1
A (A (EC1.5<1 μM))

Moving on to the next molecule: CCOc1cncc(NC(=O)N2c3nc(-c4ccnc(C)c4)ccc3N3CC[C@H]2C3)n1
A (A (EC1.5<1 μM))

Moving on to the next molecule: O=C(Nc1cccnn1)N1c2nc(-c3ccnc(C(F)(F)F)c3)ccc2N2CCC[C@H]1C2
A (A (EC1.5<1 μM))

Moving on to the next molecule: O=C(Nc1cnccn1)N1c2nc(-c3ccc(C(F)(F)F)nc3)ccc2N2CC[C@H]1C2
B (B (EC1.5 1-25 μM))

Moving on to the next molecule: O=C(Nc1cccnc1)N1c2nc(N3CCOC[C@@H]3CO)ccc2N2CC[C@H]1C2
C (C (EC1.5>25 μM))

Moving on to the next molecule: O=C(NCC1CC1)c1ccc2c(n1)N(C(=O)Nc1ccccn1)[C@H]1CCN2C1
A (A (EC1.5<1 μM))

Next:
What does the data say about its TRP Activity (EC1.5)? Entry: Cc1ccc(-c2ccc3c(n2)N(C(=O)Nc2cncc(OC[C@@H](O)CO)n2)[C@H]2CCN3C2)cn1
B (B (EC1.5 1-25 μM))

Moving on to the next molecule: Cc1ncc(-c2ccc3c(n2)N(C(=O)Nc2cnccn2)[C@H]2CCN3C2)cn1
B (B (EC1.5 1-25 μM))

Moving on to the next molecule: Cc1ncc(-c2ccc3c(n2)N(C(=O)Nc2cnccn2)[C@H]2CCN3C2)o1
B (B (EC1.5 1-25 μM))

Moving on to the next molecule: Cn1cc(-c2ccc3c(n2)N(C(=O)Nc2cnccn2)[C@H]2CCN3C2)ccc1=O
C (C (EC1.5>25 μM))

---

Biological target: SIRT1 (Homo sapiens)
Sequence (Q96EB6 1-747): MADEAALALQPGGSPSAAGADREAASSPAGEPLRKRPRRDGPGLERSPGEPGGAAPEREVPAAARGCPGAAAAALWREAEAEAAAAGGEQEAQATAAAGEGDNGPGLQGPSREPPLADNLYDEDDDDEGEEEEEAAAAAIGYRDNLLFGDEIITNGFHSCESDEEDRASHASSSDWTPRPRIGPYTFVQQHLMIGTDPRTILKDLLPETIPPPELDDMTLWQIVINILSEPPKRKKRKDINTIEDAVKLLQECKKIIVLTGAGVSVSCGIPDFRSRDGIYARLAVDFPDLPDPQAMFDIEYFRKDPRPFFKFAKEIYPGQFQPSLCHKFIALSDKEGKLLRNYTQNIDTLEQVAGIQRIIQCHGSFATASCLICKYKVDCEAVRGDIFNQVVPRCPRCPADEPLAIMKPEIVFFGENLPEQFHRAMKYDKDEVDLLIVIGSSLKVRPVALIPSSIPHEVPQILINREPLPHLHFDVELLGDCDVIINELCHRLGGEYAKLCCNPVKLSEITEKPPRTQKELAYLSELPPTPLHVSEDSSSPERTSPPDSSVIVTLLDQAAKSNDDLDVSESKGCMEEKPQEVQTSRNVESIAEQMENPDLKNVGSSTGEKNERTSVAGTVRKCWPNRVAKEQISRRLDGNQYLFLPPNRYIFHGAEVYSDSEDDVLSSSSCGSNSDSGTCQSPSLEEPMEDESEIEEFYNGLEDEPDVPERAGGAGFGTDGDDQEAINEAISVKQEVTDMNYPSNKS
Assay: Trp mass spectrometry assay of SIRT1 activation
Format: biochemical
Details: Trp mass spectrometry assay; EC1.5 = concentration of test compound that results in 150% activation of SIRT1
endpoint: Tryp AVG EC1.5 (μM)

What does the data say about its Tryp AVG EC1.5 (μM)? Entry: O=C(Nc1cccc(-c2ccc(C(F)(F)F)cn2)c1)N1c2nc(-c3cccc(C(F)(F)F)c3)ccc2N2CC[C@H]1C2
B (B (EC1.5 1-25 μM))

Moving on to the next compound: O=C(Nc1cccnc1)N1c2nc(-c3cc[nH]n3)ccc2N2CC[C@H]1C2
B (B (EC1.5 1-25 μM))

Moving on to the next compound: O=C(Nc1cnccn1)N1c2nc(-c3cccc(Cl)c3)ccc2N2CCC1CC2
B (B (EC1.5 1-25 μM))

Moving on to the next compound: Cc1ccncc1-c1ccc2c(n1)N(C(=O)Nc1cnccn1)[C@H]1CCCN2C1
C (C (EC1.5>25 μM))

Next:
What does the data say about its Tryp AVG EC1.5 (μM)? Entry: O=C(Nc1ccncn1)N1c2nc(-c3cncc(F)c3)ccc2N2CCC1CC2
C (C (EC1.5>25 μM))

Moving on to the next compound: N#Cc1ccccc1-c1ccc2c(n1)N(C(=O)Nc1cncc(F)c1)[C@H]1CCCN2C1
B (B (EC1.5 1-25 μM))
